assay: Trial 000015 Part 2: pharmacokinetics after multiple intranasal administrations; format: in vivo, human; details: female, human, plasma, inhaled or intranasal, 400 ug, multiple i.n. doses every 3 hours, 400 μg, Dose No. 1; read-out: t1/2 Harmonic mean (converted)
*1 amine or outer side, *2 acyl side, *3 side chain or, on linkers, in order; H or OH if unused. Where a SMILES comes first, the peptide text is derived from it. Bridges are numbered along the chain shown (N, C = ends). [ ]: non-standard residue; d: D form. N(4-F-Bzl)Gly = O=C(O)CNCc1ccc(F)cc1; X1 = O=C(CCC[*:2])[*:1]
assay metric: half-life (min)
Expressed in min, but write only the number.

Task item: Indicate the recorded half-life value for this molecule: CC[C@H](C)[C@@H]1NC(=O)[C@H](Cc2ccc(O)cc2)NC(=O)CCCSC[C@@H](C(=O)N(CC(=O)N[C@@H](CC(C)C)C(=O)NCC(N)=O)Cc2ccc(F)cc2)NC(=O)[C@H](CC(N)=O)NC(=O)[C@H](CCC(N)=O)NC1=O [merotocin] (YIQNC[N(4-F-Bzl)Gly]LG-NH2; linker N-5 via X1)
Reply: 21

---

test: Trial 000015 Part 2: pharmacokinetics after multiple intranasal administrations; assay type: in vivo, human; conditions: female, human, plasma, inhaled or intranasal, 200 ug, multiple i.n. doses every 3 hours, 200 μg, Dose No. 1; read-out: AUCt Geom. mean (% CV)
*1 amine or outer side, *2 acyl side, *3 side chain or, on linkers, in order; H or OH if unused. Where a SMILES comes first, the peptide text is derived from it. Bridges are numbered along the chain shown (N, C = ends). [ ]: non-standard residue; d: D form. N(4-F-Bzl)Gly = O=C(O)CNCc1ccc(F)cc1; X1 = O=C(CCC[*:2])[*:1]
assay metric: AUC(0-t) (ng·h/mL)
Report the figure in ng·h/mL without appending any unit label.

Task item: Look up and state reported AUC(0-t) for CC[C@H](C)[C@@H]1NC(=O)[C@H](Cc2ccc(O)cc2)NC(=O)CCCSC[C@@H](C(=O)N(CC(=O)N[C@@H](CC(C)C)C(=O)NCC(N)=O)Cc2ccc(F)cc2)NC(=O)[C@H](CC(N)=O)NC(=O)[C@H](CCC(N)=O)NC1=O [merotocin] (YIQNC[N(4-F-Bzl)Gly]LG-NH2; linker N-5 via X1)
Reply: 0.0804

---

experiment: Trial 000015 Part 1: pharmacokinetics after single intranasal administration; details: female, human, plasma, inhaled or intranasal, 300 ug, AUCt Geom. mean (% CV), single i.n. dose 300 μg, N = 6
*1 amine or outer side, *2 acyl side, *3 side chain or, on linkers, in order; H or OH if unused. Where a SMILES comes first, the peptide text is derived from it. Bridges are numbered along the chain shown (N, C = ends). [ ]: non-standard residue; d: D form. N(4-F-Bzl)Gly = O=C(O)CNCc1ccc(F)cc1; X1 = O=C(CCC[*:2])[*:1]
assay metric: AUC(0-t)

Task item: For the compound CC[C@H](C)[C@@H]1NC(=O)[C@H](Cc2ccc(O)cc2)NC(=O)CCCSC[C@@H](C(=O)N(CC(=O)N[C@@H](CC(C)C)C(=O)NCC(N)=O)Cc2ccc(F)cc2)NC(=O)[C@H](CC(N)=O)NC(=O)[C@H](CCC(N)=O)NC1=O [merotocin] (YIQNC[N(4-F-Bzl)Gly]LG-NH2; linker N-5 via X1) , give its reported AUC(0-t).
Reply: 0.0778 ng·h/mL
